Reference source: ChEMBL document CHEMBL4004878

# reported MBC; entries follow
Test system: Moraxella catarrhalis
Experiment: Bactericidal activity against erythromycin-susceptible Moraxella catarrhalis 11B366 incubated for 20 hrs followed by sub-culturing for 24 hrs in absence of compound
Format: functional
testReadout: MBC (µg/mL)

- C=CCN(C)[C@H]1C[C@@H](C)O[C@@H](O[C@@H]2[C@@H](C)C(=O)[C@@H](C)C(=O)O[C@H](CC)[C@@]3(C)OC(=O)O[C@@H]3[C@@H](C)/C(=N/OC/C=C/c3cnc4ccccc4c3)[C@H](C)C[C@@]2(C)OC)[C@@H]1O: 16
- CC[C@H]1OC(=O)[C@@](C)(F)C(=O)[C@H](C)[C@@H](O[C@@H]2O[C@H](C)C[C@H](N(C)C)[C@H]2O)[C@](C)(OC)C[C@@H](C)/C(=N\OCC#Cc2cncc3ccccc23)[C@H](C)[C@H]2OC(=O)O[C@@]21C: 2
- CC[C@H]1OC(=O)[C@H](C)C(=O)[C@H](C)[C@@H](O[C@@H]2O[C@H](C)C[C@H](N(C)C)[C@H]2O)[C@](C)(OC)C[C@@H](C)/C(=N\OC/C=C/c2cnc3ccccc3c2)[C@H](C)[C@H]2OC(=O)O[C@@]21C: 2
- CC[C@H]1OC(=O)[C@@](C)(F)C(=O)[C@H](C)[C@@H](O[C@@H]2O[C@H](C)C[C@H](N(C)C)[C@H]2O)[C@](C)(OC)C[C@@H](C)/C(=N\OC/C=C/c2cnc3ccccc3c2)[C@H](C)[C@H]2OC(=O)O[C@@]21C: 2

* * *

# reported Ratio; entries follow
Tested on: Streptococcus pyogenes
Assay: Ratio of MBC to MIC for Streptococcus pyogenes 01-968 expressing inducible ermA
Type: functional
testReadout: Ratio

* CC[C@H]1OC(=O)[C@@](C)(F)C(=O)[C@H](C)[C@@H](O[C@@H]2O[C@H](C)C[C@H](N(C)C)[C@H]2O)[C@](C)(OC)C[C@@H](C)/C(=N\OC/C=C/c2cnc3ccccc3c2)[C@H](C)[C@H]2OC(=O)O[C@@]21C | 8
* C=CCN(C)[C@H]1C[C@@H](C)O[C@@H](O[C@@H]2[C@@H](C)C(=O)[C@@H](C)C(=O)O[C@H](CC)[C@@]3(C)OC(=O)O[C@@H]3[C@@H](C)/C(=N/OC/C=C/c3cnc4ccccc4c3)[C@H](C)C[C@@]2(C)OC)[C@@H]1O | 8
* CC[C@H]1OC(=O)[C@H](C)[C@@H](OC(=O)Cc2ccccn2)[C@H](C)[C@@H](O[C@@H]2O[C@H](C)C[C@H](N(C)C)[C@H]2O)[C@](C)(OC)C[C@@H](C)/C(=N\OC)[C@H](C)[C@H]2OC(=O)O[C@@]21C | 8
* CC[C@H]1OC(=O)[C@@](C)(F)C(=O)[C@H](C)[C@@H](O[C@@H]2O[C@H](C)C[C@H](N(C)C)[C@H]2O)[C@](C)(OC)C[C@@H](C)/C(=N\OC/C=C/c2ccc3ncccc3c2)[C@H](C)[C@H]2OC(=O)O[C@@]21C | 4

* * *

# reported MIC; entries follow
Test system: Staphylococcus aureus
Assay: Bacteriostatic activity against methicillin-resistant Staphylococcus aureus PU32 expressing inducible ermA after 20 hrs by two-fold microbroth dilution method
Type: functional
Settings: PU32, 20 h
testReadout: MIC

• CC[C@H]1OC(=O)[C@H](C)C(=O)[C@H](C)[C@@H](O[C@@H]2O[C@H](C)C[C@H](N(C)C)[C@H]2O)[C@](C)(OC)C[C@@H](C)/C(=N\OC/C=C/c2cnc3ccccc3c2)[C@H](C)[C@H]2OC(=O)O[C@@]21C = 1 mg/L
• CC[C@H]1OC(=O)[C@@](C)(F)C(=O)[C@H](C)[C@@H](O[C@@H]2O[C@H](C)C[C@H](N(C)C)[C@H]2O)[C@](C)(OC)C[C@@H](C)/C(=N\OC/C=C/c2cnc3ccccc3c2)[C@H](C)[C@H]2OC(=O)O[C@@]21C = 2 mg/L
• CC[C@H]1OC(=O)[C@H](C)C(=O)[C@H](C)[C@@H](O[C@@H]2O[C@H](C)C[C@H](N(C)C)[C@H]2O)[C@](C)(OC)C[C@@H](C)/C(=N\OCC#Cc2cncc3ccccc23)[C@H](C)[C@H]2OC(=O)O[C@@]21C = 1 mg/L
• CC[C@H]1OC(=O)[C@H](C)C(=O)[C@H](C)[C@@H](O[C@@H]2O[C@H](C)C[C@H](N(C)C)[C@H]2O)[C@](C)(OC)C[C@@H](C)C(=O)[C@H](C)[C@H]2N(CCCCn3cnc(-c4cccnc4)c3)C(=O)O[C@]12C = 0.125 to 0.25 mg/L
